measured.target: T1, human sortilin stably expressed on HEK 293 cells (HEK-SORT1 cells) (human, UniProt Q99523 78-831)
T1 sequence (looked up): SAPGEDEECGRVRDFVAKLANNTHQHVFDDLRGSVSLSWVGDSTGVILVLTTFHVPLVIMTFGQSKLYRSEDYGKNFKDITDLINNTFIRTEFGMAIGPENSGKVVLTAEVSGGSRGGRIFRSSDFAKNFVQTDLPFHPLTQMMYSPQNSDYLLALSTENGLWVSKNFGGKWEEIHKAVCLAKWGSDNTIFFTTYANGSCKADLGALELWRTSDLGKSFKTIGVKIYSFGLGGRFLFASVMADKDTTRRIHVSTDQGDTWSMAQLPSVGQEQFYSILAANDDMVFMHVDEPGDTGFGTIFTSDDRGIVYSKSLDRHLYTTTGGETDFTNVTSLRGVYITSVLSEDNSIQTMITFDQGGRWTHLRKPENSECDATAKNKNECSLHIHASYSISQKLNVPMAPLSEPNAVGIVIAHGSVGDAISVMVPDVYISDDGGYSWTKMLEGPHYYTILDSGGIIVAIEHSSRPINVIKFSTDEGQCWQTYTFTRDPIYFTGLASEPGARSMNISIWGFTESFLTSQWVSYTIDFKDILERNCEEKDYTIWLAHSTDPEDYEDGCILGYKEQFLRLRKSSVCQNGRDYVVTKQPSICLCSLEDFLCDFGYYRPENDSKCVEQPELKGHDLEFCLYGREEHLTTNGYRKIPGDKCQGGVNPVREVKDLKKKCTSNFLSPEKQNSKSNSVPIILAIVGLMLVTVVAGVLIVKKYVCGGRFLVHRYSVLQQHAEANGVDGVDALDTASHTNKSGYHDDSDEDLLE
experiment.description: cell-based or functional assay
Ends that are not written are not given here.
Quick reference for Mean Fluorescence Intensity (MFI), uptake 37C-4C, at 3000 nM among some binders
The response must be a number in MFI with no trailing unit.

binder: KPPPAGSSPGLYENKPRRPYIL (not fully specified (residue 1); also: Cy3 label attached by BCN click to the azide) [Compound 17-AH-1492, Cy3-labeled extended neurotensin (eNT, …)]
obs.value: 1440

Next binder, please.
Q. Return reported Mean Fluorescence Intensity (MFI), uptake 37C-4C, at 3000 nM. Input binder: KAGSIKPPPAGSSPGLYENKPRRPYIL (not fully specified (residue 1); also: X side chain clicked via BCN (triazole) and 6-aminohexanol linker to 5' end of oligonucleotide CCAGGCTGGTTATGACTCAG (MOE, 3'-Cy3))
A. 3390

Values were extracted from patent US20230338555A1.
